The values you see were collected from patent US20240300923A1.

molecular target: IRAK4 (Homo sapiens (Human), UniProt Q9NWZ3); assay: IRAK4 enzyme assay (mass spectrometry readout); type: biochemical; details: human recombinant IRAK4 0.2 nM, 3 mM ATP; geometric mean of at least 2 experiments
Sequence (Q9NWZ3 whole entry): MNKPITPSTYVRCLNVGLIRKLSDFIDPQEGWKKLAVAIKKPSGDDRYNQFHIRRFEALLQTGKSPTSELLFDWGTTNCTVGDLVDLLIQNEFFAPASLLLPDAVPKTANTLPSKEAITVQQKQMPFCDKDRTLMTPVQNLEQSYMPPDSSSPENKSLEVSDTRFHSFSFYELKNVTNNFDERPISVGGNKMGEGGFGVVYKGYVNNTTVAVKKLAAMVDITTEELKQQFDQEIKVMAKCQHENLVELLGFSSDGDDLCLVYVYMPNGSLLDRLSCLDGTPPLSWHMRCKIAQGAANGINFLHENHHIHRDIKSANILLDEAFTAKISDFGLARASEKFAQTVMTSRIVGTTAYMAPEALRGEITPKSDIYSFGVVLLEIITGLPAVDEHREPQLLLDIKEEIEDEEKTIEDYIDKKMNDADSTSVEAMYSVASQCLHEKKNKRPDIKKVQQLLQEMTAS
The entries below are paired with their reported IC50.
Answer by giving the amount and then stating its unit.

[
  {
    "RECORD SMILES": "COc1cc2nn([C@H]3CC[C@H](N(C)C(=O)[C@@H](C)O)CC3)cc2cc1C(=O)Nc1cccn(C2CC2)c1=O",
    "EXPERIMENTAL SYSTEM": "IRAK4 (Homo sapiens (Human), UniProt Q9NWZ3)",
    "IC50": "0.6 nM"
  }
]

Need IC50, item COc1cc2nn([C@H]3CC[C@H](N(C)C(=O)[C@@H](C)O)CC3)cc2cc1C(=O)Nc1cccn(-c2cnn(C)c2)c1=O
0.9 nM

Entry under review: COc1cc2nn([C@H]3CC[C@H](n4ccccc4=O)CC3)cc2cc1C(=O)Nc1cccn(C)c1=O . Reported IC50?
0.5 nM
